Tested on: late erythroid cells (Eryth II)
Assay: MLTA, ErythII: concentration-response and QSP model fit
Assay type: cell-based, human
Settings: QSP model parameter, sheet EC50_parameters; Erythroid II; read-out: EC50ErythroidII
Examples of compounds with documented EC50 follow.
// return numeric value only (unit: nM, not printed)

[
  {
    "compound": "Cc1c(-c2ccc(N3CCc4cccc(C(=O)Nc5nc6ccccc6s5)c4C3)nc2C(=O)O)cnn1CC12CC3CC(CC(C3)C1)C2 [A_1331852]",
    "observation type": "EC50",
    "reported measurement": 1160
  }
]

Here is the next item to consider.
Q. Tell me the measured EC50 of O=c1[nH]cc(F)c(=O)[nH]1 [5-FU] , please.
A. 1780

----------
Test system: lymphocyte progenitors (LymP)
Assay: MLTA, LymP: concentration-response and QSP model fit
Format: cell-based, human
Conditions: Homo sapiens, Lymphocyte, 144 h; dose 500 nM, 6 days, normalized to vehicle control; read-out: LymP normalized cell count
Examples of compounds with documented activity at 0.5 µM follow.

[
  {
    "compound": "CCN1CCN(Cc2ccc(Nc3ncc(F)c(-c4cc(F)c5nc(C)n(C(C)C)c5c4)n3)nc2)CC1 [abemaciclib]",
    "activity at 0.5 µM": "22.3%"
  },
  {
    "compound": "CN(C)C(=O)c1cc2cnc(Nc3ccc(N4CCNCC4)cn3)nc2n1C1CCCC1 [ribociclib]",
    "activity at 0.5 µM": "17.4%"
  },
  {
    "compound": "CCc1cnn2c(NCc3ccc[n+]([O-])c3)cc(N3CCCC[C@H]3CCO)nc12 [dinaciclib]",
    "activity at 0.5 µM": "7.81%"
  },
  {
    "compound": "CS(=O)(=O)N1CCN(Cc2cc3nc(-c4cccc5[nH]ncc45)nc(N4CCOCC4)c3s2)CC1 [pictilisib]",
    "activity at 0.5 µM": "46.4%"
  },
  {
    "compound": "O=C1CCC(N2C(=O)c3ccccc3C2=O)C(=O)N1 (centres unmarked) [thalidomide]",
    "activity at 0.5 µM": "76.6%"
  }
]

Q. Tell me the measured activity at 0.5 µM of CC(=O)c1c(C)c2cnc(Nc3ccc(N4CCNCC4)cn3)nc2n(C2CCCC2)c1=O [palbociclib] , please.
A. 5.18%

Q. Tell me the measured activity at 0.5 µM of CC(=O)O[C@@]12CO[C@@H]1C[C@H](O)[C@@]1(C)C(=O)[C@H](O)C3=C(C)[C@@H](OC(=O)[C@H](O)[C@@H](NC(=O)OC(C)(C)C)c4ccccc4)C[C@@](O)([C@@H](OC(=O)c4ccccc4)[C@H]21)C3(C)C [docetaxel] , please.
A. 7.71%

Q. Tell me the measured activity at 0.5 µM of CC(=O)O[C@H]1C(=O)[C@@]2(C)[C@H]([C@H](OC(=O)c3ccccc3)[C@]3(O)C[C@H](OC(=O)[C@H](O)[C@@H](NC(=O)c4ccccc4)c4ccccc4)C(C)=C1C3(C)C)[C@]1(OC(C)=O)CO[C@@H]1C[C@@H]2O [paclitaxel] , please.
A. 7.34%

----------
Examples of molecules with documented activity at 2.5 µM follow.
System: total dead cells (totalDeadCells)
Experiment: MLTA, total dead cells concentration-response
Assay type: cell-based
Settings: Homo sapiens, 144 h; dose 2500 nM, 6 days, normalized to vehicle control; read-out: total_dead normalized cell count
// return numeric value only (unit: %, not printed)

Q. Tell me the measured activity at 2.5 µM of CC(=O)c1c(C)c2cnc(Nc3ccc(N4CCNCC4)cn3)nc2n(C2CCCC2)c1=O [palbociclib] , please.
A. 22.7

Q. Tell me the measured activity at 2.5 µM of CCN1CCN(Cc2ccc(Nc3ncc(F)c(-c4cc(F)c5nc(C)n(C(C)C)c5c4)n3)nc2)CC1 [abemaciclib] , please.
A. 34

Q. Tell me the measured activity at 2.5 µM of CCc1cnn2c(NCc3ccc[n+]([O-])c3)cc(N3CCCC[C@H]3CCO)nc12 [dinaciclib] , please.
A. 39.6

----------
System: early erythroid cells (Eryth I)
Assay: MLTA, ErythI: concentration-response and QSP model fit
Format: cell-based, human
Details: Homo sapiens, 144 h; QSP model fit of 6-day MLTA data; read-out: EC50ErythI
observation type: EC50 (nM)
// return numeric value only (unit: nM, not printed)

[
  {
    "structure as smiles": "CCN1CCN(Cc2ccc(Nc3ncc(F)c(-c4cc(F)c5nc(C)n(C(C)C)c5c4)n3)nc2)CC1",
    "EC50, nM": 29.2
  },
  {
    "structure as smiles": "CC(=O)O[C@H]1C(=O)[C@@]2(C)[C@H]([C@H](OC(=O)c3ccccc3)[C@]3(O)C[C@H](OC(=O)[C@H](O)[C@@H](NC(=O)c4ccccc4)c4ccccc4)C(C)=C1C3(C)C)[C@]1(OC(C)=O)CO[C@@H]1C[C@@H]2O",
    "EC50, nM": 15.4
  }
]

Here is the next item to consider.
Q. Tell me the measured EC50 of `CC(=O)O[C@@]12CO[C@@H]1C[C@H](O)[C@@]1(C)C(=O)[C@H](O)C3=C(C)[C@@H](OC(=O)[C@H](O)[C@@H](NC(=O)OC(C)(C)C)c4ccccc4)C[C@@](O)([C@@H](OC(=O)c4ccccc4)[C@H]21)C3(C)C` , please.
A. 8.14

----------
Tested on: MK cells (MK-lin)
Experiment: MLTA, MK: concentration-response and QSP model fit
Assay type: cell-based, human
Conditions: Homo sapiens, 144 h; dose 25 nM, 6 days, normalized to vehicle control; read-out: MK normalized cell count
observation type: activity at 0.025 µM (%)
// return numeric value only (unit: %, not printed)

Q. Tell me the measured activity at 0.025 µM of CC(=O)O[C@@]12CO[C@@H]1C[C@H](O)[C@@]1(C)C(=O)[C@H](O)C3=C(C)[C@@H](OC(=O)[C@H](O)[C@@H](NC(=O)OC(C)(C)C)c4ccccc4)C[C@@](O)([C@@H](OC(=O)c4ccccc4)[C@H]21)C3(C)C [docetaxel] , please.
A. 1.1

Q. Tell me the measured activity at 0.025 µM of O=C1CCC(N2C(=O)c3ccccc3C2=O)C(=O)N1 (centres unmarked) [thalidomide] , please.
A. 114

Q. Tell me the measured activity at 0.025 µM of CN(C)C(=O)c1cc2cnc(Nc3ccc(N4CCNCC4)cn3)nc2n1C1CCCC1 [ribociclib] , please.
A. 83.6

----------
System: granulocytes (Gran-lin)
Test: MLTA, Gran: concentration-response and QSP model fit
Format: cell-based, human
Conditions: Homo sapiens, 144 h; parameter from QSP model fitting; read-out: Emax_drug_Gran
Examples of compounds with documented Emax follow.
// return numeric value only (unit: %, not printed)

Q. Tell me the measured Emax of CC(C)C[C@H](NC(=O)[C@H](Cc1ccccc1)NC(=O)c1cnccn1)B(O)O [Bortezomib] , please.
A. 184

Q. Tell me the measured Emax of CN(C)C(=O)c1cc2cnc(Nc3ccc(N4CCNCC4)cn3)nc2n1C1CCCC1 [ribociclib] , please.
A. 0.0359

Q. Tell me the measured Emax of CC(=O)O[C@@]12CO[C@@H]1C[C@H](O)[C@@]1(C)C(=O)[C@H](O)C3=C(C)[C@@H](OC(=O)[C@H](O)[C@@H](NC(=O)OC(C)(C)C)c4ccccc4)C[C@@](O)([C@@H](OC(=O)c4ccccc4)[C@H]21)C3(C)C [docetaxel] , please.
A. 276

Q. Tell me the measured Emax of CCN1CCN(Cc2ccc(Nc3ncc(F)c(-c4cc(F)c5nc(C)n(C(C)C)c5c4)n3)nc2)CC1 [abemaciclib] , please.
A. 0.16

Q. Tell me the measured Emax of CC(=O)c1c(C)c2cnc(Nc3ccc(N4CCNCC4)cn3)nc2n(C2CCCC2)c1=O [palbociclib] , please.
A. 0.0335

----------
Tested on: granulocyte-macrophage progenitor (GMPs)
Assay: MLTA, GMPs: concentration-response and QSP model fit
Assay type: cell-based, human
Settings: Homo sapiens, 144 h; dose 25 nM, 6 days, normalized to vehicle control; read-out: GMPs normalized cell count
Examples of compounds with documented activity at 0.025 µM follow.

The cases that follow already have their activity at 0.025 µM on record.
[
  {
    "compound": "CC(=O)O[C@@]12CO[C@@H]1C[C@H](O)[C@@]1(C)C(=O)[C@H](O)C3=C(C)[C@@H](OC(=O)[C@H](O)[C@@H](NC(=O)OC(C)(C)C)c4ccccc4)C[C@@](O)([C@@H](OC(=O)c4ccccc4)[C@H]21)C3(C)C",
    "activity at 0.025 µM": "0.367%"
  },
  {
    "compound": "CCN1CCN(Cc2ccc(Nc3ncc(F)c(-c4cc(F)c5nc(C)n(C(C)C)c5c4)n3)nc2)CC1",
    "activity at 0.025 µM": "50.4%"
  },
  {
    "compound": "CC(=O)O[C@H]1C(=O)[C@@]2(C)[C@H]([C@H](OC(=O)c3ccccc3)[C@]3(O)C[C@H](OC(=O)[C@H](O)[C@@H](NC(=O)c4ccccc4)c4ccccc4)C(C)=C1C3(C)C)[C@]1(OC(C)=O)CO[C@@H]1C[C@@H]2O",
    "activity at 0.025 µM": "3.34%"
  }
]

Q. Identify the measured activity at 0.025 µM of `CS(=O)(=O)N1CCN(Cc2cc3nc(-c4cccc5[nH]ncc45)nc(N4CCOCC4)c3s2)CC1` for granulocyte-macrophage progenitor (GMPs).
A. 75.4%

Q. Identify the measured activity at 0.025 µM of `CCc1cnn2c(NCc3ccc[n+]([O-])c3)cc(N3CCCC[C@H]3CCO)nc12` for granulocyte-macrophage progenitor (GMPs).
A. 40.3%

Q. Identify the measured activity at 0.025 µM of `CC(=O)c1c(C)c2cnc(Nc3ccc(N4CCNCC4)cn3)nc2n(C2CCCC2)c1=O` for granulocyte-macrophage progenitor (GMPs).
A. 76.3%

Q. Identify the measured activity at 0.025 µM of O=C1CCC(N2C(=O)c3ccccc3C2=O)C(=O)N1 (centres unmarked) [thalidomide] for granulocyte-macrophage progenitor (GMPs).
A. 112%

Q. Identify the measured activity at 0.025 µM of `CN(C)C(=O)c1cc2cnc(Nc3ccc(N4CCNCC4)cn3)nc2n1C1CCCC1` for granulocyte-macrophage progenitor (GMPs).
A. 85%
